assay: Compound chemical stability SGF without pepsin; conditions: 60 minutes
Each entry below carries its recorded % Remaining.

Examples with answers:
Exam item: Any idea what its % Remaining is? The molecule is CCOC(=O)NC(C)Cc1ccc2c(c1)OCO2 (stereo not drawn) [Compound 2]
Marked response: 101.64%

Exam item: Any idea what its % Remaining is? The molecule is C[C@H](Cc1ccc2c(c1)OCO2)NC(=O)OC(C)(C)C [Compound 6]
Marked response: 77.20%

Exam item: Any idea what its % Remaining is? The molecule is Cc1oc(=O)oc1CN(C)[C@H](C)Cc1ccc2c(c1)OCO2 [Compound 9]
Marked response: 89%

Exam item: Any idea what its % Remaining is? The molecule is C[C@H](Cc1ccc2c(c1)OCO2)N(C)C(=O)OC(C)(C)C [Compound 7]
Marked response: 73.62%

Please examine the following record next.
Exam item: Any idea what its % Remaining is? The molecule is CC(Cc1ccc2c(c1)OCO2)N(C)C(=O)CN (stereo not drawn) [Compound 4]
Marked response: 96.72%

----------
assay: Compound chemical stability SGF with pepsin; settings: 120 minutes
Each entry below carries its recorded % Remaining.
Output spec: scalar in %, unitless text.

Examples with answers:
Exam item: Any idea what its % Remaining is? The compound is CCOC(=O)N(C)C(C)Cc1ccc2c(c1)OCO2 (stereo not shown) [Compound 1]
Marked response: 103.31

Exam item: Any idea what its % Remaining is? The compound is Cc1oc(=O)oc1CN[C@H](C)Cc1ccc2c(c1)OCO2 [Compound 8]
Marked response: 96

Exam item: Any idea what its % Remaining is? The compound is C[C@H](Cc1ccc2c(c1)OCO2)N(C)C(=O)OC(C)(C)C [Compound 7]
Marked response: 56.42

Please examine the following record next.
Exam item: Any idea what its % Remaining is? The compound is C[C@H](Cc1ccc2c(c1)OCO2)NC(=O)OC(C)(C)C [Compound 6]
Marked response: 56.87

----------
Each entry below carries its recorded % Remaining.
assay: Compound chemical stability SGF with pepsin; conditions: 60 minutes
Output spec: scalar in %, unitless text.

Examples with answers:
Exam item: Any idea what its % Remaining is? The molecule is CCOC(=O)N(C)C(C)Cc1ccc2c(c1)OCO2 (stereo not drawn)
Marked response: 98.61

Exam item: Any idea what its % Remaining is? The molecule is CC(Cc1ccc2c(c1)OCO2)N(C)C(=O)CN (stereo not drawn)
Marked response: 98.50

Next:
Exam item: Any idea what its % Remaining is? The molecule is C[C@H](Cc1ccc2c(c1)OCO2)NC(=O)OC(C)(C)C
Marked response: 79.89

----------
test: Compound mouse plasma stability; conditions: 120 minutes
property.name: % Remaining (%)
Output spec: scalar in %, unitless text.

Exam item: Any idea what its % Remaining is? The compound is CCOC(=O)NC(C)Cc1ccc2c(c1)OCO2 (centres unmarked)
Marked response: 84.42

Exam item: Any idea what its % Remaining is? The compound is C[C@H](Cc1ccc2c(c1)OCO2)N(C)C(=O)OC(C)(C)C
Marked response: 92

Exam item: Any idea what its % Remaining is? The compound is CCOC(=O)N(C)C(C)Cc1ccc2c(c1)OCO2 (centres unmarked)
Marked response: 89.31

Exam item: Any idea what its % Remaining is? The compound is C[C@H](Cc1ccc2c(c1)OCO2)NC(=O)OC(C)(C)C
Marked response: 95

Please examine the following record next.
Exam item: Any idea what its % Remaining is? The compound is CC(OC(=O)N(C)C(C)Cc1ccc2c(c1)OCO2)OC(=O)C(C)(C)C (centres unmarked)
Marked response: 0.0

----------
Each entry below carries its recorded % Remaining.
assay: Compound chemical stability PBS (pH 6.5); settings: PBS pH 6.5, 0 minutes
Output spec: scalar in %, unitless text.

Examples with answers:
Exam item: Any idea what its % Remaining is? The compound is CC(OC(=O)N(C)C(C)Cc1ccc2c(c1)OCO2)OC(=O)C(C)(C)C (stereo not shown)
Marked response: 100.00

Exam item: Any idea what its % Remaining is? The compound is Cc1oc(=O)oc1CN[C@H](C)Cc1ccc2c(c1)OCO2
Marked response: 100

Exam item: Any idea what its % Remaining is? The compound is Cc1oc(=O)oc1CN(C)[C@H](C)Cc1ccc2c(c1)OCO2
Marked response: 100

Please examine the following record next.
Exam item: Any idea what its % Remaining is? The compound is CCOC(=O)NC(C)Cc1ccc2c(c1)OCO2 (stereo not shown)
Marked response: 100.00

----------
Each entry below carries its recorded % Remaining.
assay: Compound mouse plasma stability; settings: 0 minutes
Output spec: scalar in %, unitless text.

Exam item: Any idea what its % Remaining is? The compound is C[C@H](Cc1ccc2c(c1)OCO2)NC(=O)OC(C)(C)C
Marked response: 100

Exam item: Any idea what its % Remaining is? The compound is CC(OC(=O)N(C)C(C)Cc1ccc2c(c1)OCO2)OC(=O)C(C)(C)C (stereo not drawn)
Marked response: 100

Exam item: Any idea what its % Remaining is? The compound is CCOC(=O)N(C)C(C)Cc1ccc2c(c1)OCO2 (stereo not drawn)
Marked response: 100.00

Next:
Exam item: Any idea what its % Remaining is? The compound is CC(Cc1ccc2c(c1)OCO2)NC(=O)CN (stereo not drawn)
Marked response: 100.00

Exam item: Any idea what its % Remaining is? The compound is Cc1oc(=O)oc1CN(C)[C@H](C)Cc1ccc2c(c1)OCO2
Marked response: 100

Exam item: Any idea what its % Remaining is? The compound is Cc1oc(=O)oc1CN[C@H](C)Cc1ccc2c(c1)OCO2
Marked response: 100

Exam item: Any idea what its % Remaining is? The compound is CC(Cc1ccc2c(c1)OCO2)N(C)C(=O)CN (stereo not drawn)
Marked response: 100.00

Exam item: Any idea what its % Remaining is? The compound is C[C@H](Cc1ccc2c(c1)OCO2)N(C)C(=O)OC(C)(C)C
Marked response: 100

Exam item: Any idea what its % Remaining is? The compound is CCOC(=O)NC(C)Cc1ccc2c(c1)OCO2 (stereo not drawn)
Marked response: 100.00

----------
assay: Compound chemical stability PBS (pH 6.5); settings: PBS pH 6.5, 30 minutes
property.name: % Remaining (%)
Output spec: scalar in %, unitless text.

Examples with answers:
Exam item: Any idea what its % Remaining is? The compound is CC(Cc1ccc2c(c1)OCO2)NC(=O)CN (stereo not drawn) [Compound 5]
Marked response: 95.53

Exam item: Any idea what its % Remaining is? The compound is C[C@H](Cc1ccc2c(c1)OCO2)NC(=O)OC(C)(C)C [Compound 6]
Marked response: 84.81

Exam item: Any idea what its % Remaining is? The compound is CCOC(=O)N(C)C(C)Cc1ccc2c(c1)OCO2 (stereo not drawn) [Compound 1]
Marked response: 90.48

Exam item: Any idea what its % Remaining is? The compound is CC(OC(=O)N(C)C(C)Cc1ccc2c(c1)OCO2)OC(=O)C(C)(C)C (stereo not drawn) [Compound 3]
Marked response: 103.45

Exam item: Any idea what its % Remaining is? The compound is CC(Cc1ccc2c(c1)OCO2)N(C)C(=O)CN (stereo not drawn) [Compound 4]
Marked response: 88.84

Exam item: Any idea what its % Remaining is? The compound is C[C@H](Cc1ccc2c(c1)OCO2)N(C)C(=O)OC(C)(C)C [Compound 7]
Marked response: 94.54

Exam item: Any idea what its % Remaining is? The compound is Cc1oc(=O)oc1CN(C)[C@H](C)Cc1ccc2c(c1)OCO2 [Compound 9]
Marked response: 83

Exam item: Any idea what its % Remaining is? The compound is Cc1oc(=O)oc1CN[C@H](C)Cc1ccc2c(c1)OCO2 [Compound 8]
Marked response: 96

Please examine the following record next.
Exam item: Any idea what its % Remaining is? The compound is CCOC(=O)NC(C)Cc1ccc2c(c1)OCO2 (stereo not drawn) [Compound 2]
Marked response: 89.05

----------
Each entry below carries its recorded % Remaining.
assay: Compound chemical stability SGF without pepsin; conditions: 120 minutes
Output spec: scalar in %, unitless text.

Examples with answers:
Exam item: Any idea what its % Remaining is? The compound is Cc1oc(=O)oc1CN(C)[C@H](C)Cc1ccc2c(c1)OCO2 [Compound 9]
Marked response: 83

Exam item: Any idea what its % Remaining is? The compound is C[C@H](Cc1ccc2c(c1)OCO2)N(C)C(=O)OC(C)(C)C [Compound 7]
Marked response: 61.79

Exam item: Any idea what its % Remaining is? The compound is Cc1oc(=O)oc1CN[C@H](C)Cc1ccc2c(c1)OCO2 [Compound 8]
Marked response: 90

Exam item: Any idea what its % Remaining is? The compound is CC(Cc1ccc2c(c1)OCO2)N(C)C(=O)CN (stereo not drawn) [Compound 4]
Marked response: 96.67

Exam item: Any idea what its % Remaining is? The compound is CCOC(=O)NC(C)Cc1ccc2c(c1)OCO2 (stereo not drawn) [Compound 2]
Marked response: 90.45

Next:
Exam item: Any idea what its % Remaining is? The compound is CC(OC(=O)N(C)C(C)Cc1ccc2c(c1)OCO2)OC(=O)C(C)(C)C (stereo not drawn) [Compound 3]
Marked response: 93.65

Exam item: Any idea what its % Remaining is? The compound is C[C@H](Cc1ccc2c(c1)OCO2)NC(=O)OC(C)(C)C [Compound 6]
Marked response: 57.49

Exam item: Any idea what its % Remaining is? The compound is CC(Cc1ccc2c(c1)OCO2)NC(=O)CN (stereo not drawn) [Compound 5]
Marked response: 95.49

Exam item: Any idea what its % Remaining is? The compound is CCOC(=O)N(C)C(C)Cc1ccc2c(c1)OCO2 (stereo not drawn) [Compound 1]
Marked response: 103.81
